Entry source: patent US11578055B2

Test: In Vitro Microsome Stability Assay (monkey)
Type: in vitro ADME
Conditions: monkey, 30 min, NADPH
Structures can show the parent of a compound that is named as a salt.
Values of Liver Microsome Stability-% Left after 30 min w/ NADPH (%) Monkey strictly less than 2% map to yes, and values of at least 2% map to no.

compound	assigned label
C=C1CN(S(=O)(=O)c2ccc(C)cc2)CCCN(CC2CCCCC2)CCCN(S(=O)(=O)C(C)C)C1 [A7]	yes
C=C1CN(S(=O)(=O)c2ccc(N(C)C)cc2)CCCN(CC2CCCCC2)CCCN(S(=O)(=O)N2CCC(c3ccccc3)CC2)C1 [A35, hydrochloride]	no
CC1CCCCN1S(=O)(=O)N1CCCN(CC2CCCCC2)CCCN(S(=O)(=O)c2ccc(N(C)C)cc2)CC2(CC2)C1 (centres unmarked) [A20]	yes

I'd appreciate it if you could check whether C=C1CN(S(=O)(=O)c2ccc(N(C)C)cc2)CCCN(CC2CCCCC2)CCCN(S(=O)(=O)N2CCC(c3ccccc3Cl)CC2)C1 [A57] has Liver Microsome Stability-% Left after 30 min w/ NADPH (%) Monkey smaller than 2%.
no

I'd appreciate it if you could check whether C[C@H]1CN(S(=O)(=O)c2ccc(N(C)C)cc2)CCCN(CC2CCCCC2)CCCN(S(=O)(=O)N2CC[C@@H](c3ccccc3)C2)C1 [A90] has Liver Microsome Stability-% Left after 30 min w/ NADPH (%) Monkey smaller than 2%.
no

###

Assay: In Vitro Microsome Stability Assay (mouse)
Type: in vitro ADME
Settings: mouse, 30 min, NADPH
recorded endpoint: Liver Microsome Stability-% Left after 30 min w/ NADPH (%) Mouse
Just the number please, in %, no unit attached.

Which Liver Microsome Stability-% Left after 30 min w/ NADPH (%) Mouse reading was recorded for the molecule C=C1CN(S(=O)(=O)c2ccc(C)cc2)CCCN(CC2CCOCC2)CCCN(S(=O)(=O)c2ccc(N(C)C)cc2)C1 [A9] ?
0.34

Which Liver Microsome Stability-% Left after 30 min w/ NADPH (%) Mouse reading was recorded for the molecule O=S(=O)(c1ccccc1)N1CCCN(CC2CCCCC2)CCCN(S(=O)(=O)N2CCCCC2)CC2(CC2)C1 [A34] ?
0.24

###

Recorded Liver Microsome Stability-% Left after 30 min w/ NADPH (%) Human for the following compounds
Assay: In Vitro Microsome Stability Assay (human)
Type: in vitro ADME
Conditions: human liver microsomes, 30 min w/ NADPH
Just the number please, in %, no unit attached.

Reference set, count: 2
compound	value
C[C@H]1CN(S(=O)(=O)c2ccc(N(C)C)cc2)CCCN(CC2CC(F)(F)C2)CCCN(S(=O)(=O)N2CCc3cc(Cl)ccc3C2)C1	34.7
COc1cc(F)ccc1N1CCN(S(=O)(=O)N2CCCN(CC3CCCCC3)CCCN(S(=O)(=O)c3ccc(N(C)C)cc3)C[C@H](C)C2)C[C@H]1C	13.7

Please turn your attention to the following entry.
Which Liver Microsome Stability-% Left after 30 min w/ NADPH (%) Human reading was recorded for the compound C[C@H]1CN(CC2CCCCC2)C[C@H](C)CN(S(=O)(=O)N2CCc3cc(Cl)ccc3C2)C[C@@H](C)CN(S(=O)(=O)c2ccc(N(C)C)cc2)C1 ?
71.8

###

Recorded Liver Microsome Stability-% Left after 30 min w/ NADPH (%) Mouse for the following molecules
Test: In Vitro Microsome Stability Assay (mouse)
Assay type: in vitro ADME
Conditions: mouse, 30 min, NADPH
Structures can show the parent of a compound that is named as a salt.
Just the number please, in %, no unit attached.

Which Liver Microsome Stability-% Left after 30 min w/ NADPH (%) Mouse reading was recorded for the molecule C=C1CN(S(=O)(=O)c2ccc(C)cc2)CCCN(CC2CCC(C)(C)CC2)CCCN(S(=O)(=O)c2ccc(N(C)C)cc2)C1 [A10, hydrochloride] ?
0.2

Which Liver Microsome Stability-% Left after 30 min w/ NADPH (%) Mouse reading was recorded for the molecule C=C1CN(S(=O)(=O)c2ccc(N(C)C)cc2)CCCN(CC2CCCCC2)CCCN(S(=O)(=O)N2CCC[C@H](c3ccccc3)C2)C1 ?
11.8

Which Liver Microsome Stability-% Left after 30 min w/ NADPH (%) Mouse reading was recorded for the molecule C[C@H]1CN(S(=O)(=O)c2ccc(N(C)C)cc2)CCCN(CC2CCCCC2)CCCN(S(=O)(=O)N2CCN(c3ccccc3F)CC2)C1 ?
45.7

Which Liver Microsome Stability-% Left after 30 min w/ NADPH (%) Mouse reading was recorded for the molecule C=C1CN(S(=O)(=O)c2ccc(C)cc2)CCCN(CC2CCCCC2)CCCN(S(=O)(=O)c2ccc(N(C)C)cc2)C1 ?
0.56

Which Liver Microsome Stability-% Left after 30 min w/ NADPH (%) Mouse reading was recorded for the molecule C=C1CN(S(=O)(=O)c2ccc(N(C)C)cc2)CCCN(CC2CCCCC2)CCCN(S(=O)(=O)N2CCN(c3cccc(Cl)c3)CC2)C1 ?
68.3

Which Liver Microsome Stability-% Left after 30 min w/ NADPH (%) Mouse reading was recorded for the molecule C=C1CN(S(=O)(=O)c2ccc(N(C)C)cc2)CCCN(CC2CCCCC2)CCCN(S(=O)(=O)N2CCCCC2)C1 ?
0.04
